Measured ligand efficiency (LE) by item
molecular target: bromodomain of TRIM24 (Homo sapiens, UniProt O15164); test: AlphaScreen biochemical bromodomain-H3K23; type: binding; conditions: from TRIM24 IC50
Sequence (O15164 899-1004 limits assumed): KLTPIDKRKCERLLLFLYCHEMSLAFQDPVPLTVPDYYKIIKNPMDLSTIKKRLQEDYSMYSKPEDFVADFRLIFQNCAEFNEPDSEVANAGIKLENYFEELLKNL
Give the figure by itself; no unit, no explanation.

Examples with answers:
CCCOc1cccc(Oc2cc3c(cc2NS(=O)(=O)c2ccc(OC)c(OC)c2)n(C)c(=O)n3C)c1 : 0.27
COc1ccc(S(=O)(=O)Nc2cc3c(cc2Oc2cccc(OCc4ccccc4)c2)n(C)c(=O)n3C)cc1OC : 0.23
Cn1c(=O)n(C)c2cc(NS(=O)(=O)c3ccc(C4CCCCC4)cc3)ccc21 : 0.28

For this compound ( "Cc1nc(-c2ccc3c(c2)CC(=O)N3C)cs1" ), measured ligand efficiency (LE) is 0.41

For this compound ( "COc1ccc(Oc2cc3c(cc2NS(=O)(=O)c2ccccc2)n(C)c(=O)n3C)cc1" ), measured ligand efficiency (LE) is 0.26
